Source of measurements: patent US12064577B2

method-notes: Plasma concentration of mometasone furoate after drug coated balloon delivery to ovine maxillary sinus
Format: in vivo
test-parameters: other: drug coated balloon expanded in the maxillary sinus, sheep, day 1 after Example 3 balloon delivery to maxillary sinus, read-out: MF Plasma Concentration
experimental-endpoint: concentration at 1 day (ng/mL)
Give a bare numeral; the unit ng/mL is implied.

Task item: Would you mind telling me what concentration at 1 day value was observed for C[C@@H]1C[C@H]2[C@@H]3CCC4=CC(=O)C=C[C@]4(C)[C@@]3(Cl)[C@@H](O)C[C@]2(C)[C@@]1(OC(=O)c1ccco1)C(=O)CCl [mometasone furoate] ?
Reply: 0.3

----------
method-notes: Plasma concentration of mometasone furoate after drug coated balloon delivery to ovine maxillary sinus
Type: in vivo
test-parameters: other: drug coated balloon expanded in the maxillary sinus, sheep, day 0 after Example 3 balloon delivery to maxillary sinus, read-out: MF Plasma Concentration
experimental-endpoint: concentration at 0 day (ng/mL)
Give a bare numeral; the unit ng/mL is implied.

Task item: Would you mind telling me what concentration at 0 day value was observed for C[C@@H]1C[C@H]2[C@@H]3CCC4=CC(=O)C=C[C@]4(C)[C@@]3(Cl)[C@@H](O)C[C@]2(C)[C@@]1(OC(=O)c1ccco1)C(=O)CCl [mometasone furoate] ?
Reply: 0.3
